System: carageenan-induced edema
Protocol details: Carrageenan-induced rat paw edema test (anti-inflammatory activity)
Type: in vivo, Sprague-Dawley rats
Condition parameters: Rattus norvegicus, po, 3 h, carrageenan-induced rat paw edema; defined in Example 397; read-out: % Protection
Property: inhibition in vivo at 50 mg/kg (%)
Numeric answer only, unit % assumed.

Some compounds with known inhibition in vivo at 50 mg/kg results, for comparison:
# Smi, Target system, Units symbol, inhibition in vivo at 50 mg/kg
measured = [
    ("CCOC(=O)Nc1nc(-c2ccccc2)c(-c2nc3ccccc3c(=O)n2-c2ccc(C(C)=O)cc2)s1", "carageenan-induced edema", "%", 40),
    ("COc1ccccc1-n1c(-c2sc(Nc3ccc(Cl)cc3)nc2C)nc2ccccc2c1=O", "carageenan-induced edema", "%", 27),
]

Continue with the next compound.
Request: For the compound CNc1nc(-c2ccccc2)c(-c2nc3ccccc3c(=O)n2-c2ccccc2OC)s1 , give its reported inhibition in vivo at 50 mg/kg.
Response: 56

---

Tested on: vascular smooth muscle cells (VSMC)
Protocol details: Trypan blue viability count in VSMC
Type: cell-based
Condition parameters: VSMC, 10 μM, 48 h, relative to vehicle
Marks after values point to notes of the source that are not given here.
Property: Viable Cells % Decrease VSMC

# Smi, Property, Result
measured = [
    ("COc1ccccc1-n1c(-c2cc(-c3ccncc3)c(N3CCOCC3)s2)nc2ccccc2c1=O", "Viable Cells % Decrease VSMC", "0%"),
    ("O=c1c2ccccc2nc(-c2cc(-c3ccncc3)c(N3CCOCC3)s2)n1-c1ccccc1Cl", "Viable Cells % Decrease VSMC", "63# %"),
    ("COc1ccccc1-n1c(-c2cc(-c3ccc(S(C)(=O)=O)cc3)c(N3CCOCC3)s2)nc2ccccc2c1=O", "Viable Cells % Decrease VSMC", "70# %"),
]

Request: Query Viable Cells % Decrease VSMC for COc1ccc(-n2c(-c3cc(-c4ccc(S(C)(=O)=O)cc4)c(N4CCOCC4)s3)nc3ccccc3c2=O)cc1
Response: 6%

Request: Read the entry CNc1nc(-c2ccccc2)c(-c2nc3ccccc3c(=O)n2-c2ccccc2OC)s1 and write its reported Viable Cells % Decrease VSMC.
Response: 70# %

Request: Quote Viable Cells % Decrease VSMC reported for COC(=O)Nc1nc(-c2ccccc2)c(-c2nc3ccccc3c(=O)n2-c2ccccc2Cl)s1 please.
Response: 45# %

---

Test system: cell lines from the skin, one tumorigenic and one non-tumorigenic
Protocol details: MTT viability in skin cell line pair, tumorigenic and non-tumorigenic
Assay type: cell-based
Marks after values point to notes of the source that are not given here.
Let's look at some molecules and their measured Viability (MTT) % Decrease SRB12-p9.

Example molecules with recorded Viability (MTT) % Decrease SRB12-p9:
# Smi, Result
data = [
    ("COc1ccccc1-n1c(-c2cc(-c3ccncc3)c(N3CCOCC3)s2)nc2ccccc2c1=O", "30# %"),
    ("Cc1nc(Nc2ccc(Cl)cc2)sc1-c1nc2ccccc2c(=O)n1-c1ccccc1Cl", "85# %"),
]

Kindly consider the entry below.
Request: Determine its reported Viability (MTT) % Decrease SRB12-p9: CNc1nc(-c2ccccc2)c(-c2nc3ccccc3c(=O)n2-c2ccccc2OC)s1
Response: 61# %

---

System: human proximal tubule (HPT) cells
Protocol details: Ethidium homodimer (EthHD) uptake toxicity assay in HPT cells
Format: cell-based
Condition parameters: 10 μM, 48 h, relative to vehicle
Marks after values point to notes of the source that are not given here.
Below, each entry is listed alongside its reported Cell Death (EthHD) % Increase HPT.

Some entries whose results are on file:
# Smi, Cell Death (EthHD) % Increase HPT
measured = [
    ("COC(=O)Nc1nc(-c2ccccc2)c(-c2nc3ccccc3c(=O)n2-c2ccccc2Cl)s1", "210# %"),
    ("O=c1c2ccccc2nc(-c2cc(-c3ccncc3)c(N3CCOCC3)s2)n1-c1ccccc1Cl", "266# %"),
]

Request: For the compound Cc1cccc(-n2c(-c3sc(NC(=O)c4ccccc4)nc3-c3ccccc3)nc3ccccc3c2=O)c1 , give its measured Cell Death (EthHD) % Increase HPT value.
Response: 49# %

Request: Assign Cell Death (EthHD) % Increase HPT to the following record: CC(=O)c1ccc(-n2c(-c3cc(-c4ccncc4)c(N4CCOCC4)s3)nc3ccccc3c2=O)cc1
Response: 50# %

Request: Consider the compound Cc1ccccc1-n1c(-c2cc(-c3ccncc3)c(N3CCOCC3)s2)nc2ccccc2c1=O and give its recorded Cell Death (EthHD) % Increase HPT.
Response: 250# %

Request: Look up and report measured Cell Death (EthHD) % Increase HPT for this entry: COc1ccc(-n2c(-c3cc(-c4ccc(S(C)(=O)=O)cc4)c(N4CCOCC4)s3)nc3ccccc3c2=O)cc1
Response: 152# %

Request: Consider the compound Cc1nc(Nc2ccc(Cl)cc2)sc1-c1nc2ccccc2c(=O)n1-c1ccccc1Cl . State its measured Cell Death (EthHD) % Increase HPT.
Response: 17%

Request: Consider the compound CNc1nc(C)c(-c2nc3ccccc3c(=O)n2-c2ccc(Cl)cc2)s1 . State its measured Cell Death (EthHD) % Increase HPT.
Response: 180# %

Request: Give the reported Cell Death (EthHD) % Increase HPT for this compound. O=c1c2ccccc2nc(-c2cc(-c3ccncc3)c(N3CCOCC3)s2)n1-c1ccc(Cl)cc1
Response: 172# %

From: patent US8829014B2
